Taken from patent US20080188528A1.

target: human C3a receptor (C3aR) (Homo sapiens); construct: expressed in transfected cells; assay: Inhibition of human [125I]-C3a binding to human C3a receptor (SPA, membranes of HEK293 cells expressing recombinant C3aR); conditions: 0.1 nM [125I]-C3a, 3 hours at room temperature; Table 5
Sequence (Q16581 whole entry): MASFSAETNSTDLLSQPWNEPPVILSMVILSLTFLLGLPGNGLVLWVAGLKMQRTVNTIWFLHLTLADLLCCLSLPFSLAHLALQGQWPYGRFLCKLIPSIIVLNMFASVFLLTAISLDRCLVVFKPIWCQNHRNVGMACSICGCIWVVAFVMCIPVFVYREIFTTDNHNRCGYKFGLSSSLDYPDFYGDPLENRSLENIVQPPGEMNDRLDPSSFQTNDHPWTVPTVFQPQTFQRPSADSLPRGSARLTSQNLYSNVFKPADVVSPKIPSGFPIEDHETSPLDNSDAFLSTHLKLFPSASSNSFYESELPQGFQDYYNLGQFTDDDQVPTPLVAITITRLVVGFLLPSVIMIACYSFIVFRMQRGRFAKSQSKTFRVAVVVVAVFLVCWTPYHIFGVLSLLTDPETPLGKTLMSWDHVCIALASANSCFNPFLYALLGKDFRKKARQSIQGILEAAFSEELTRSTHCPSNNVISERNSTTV
Measurement Name: IC50

Smiles Repr	IC50
O=C(N[C@@H](Cc1c[nH]cn1)C(=O)O)c1cccn(C(c2ccccc2)c2ccccc2)c1=O	50 to 500 nM

Now consider the entry below.
## Input For the compound Cc1cc(Cc2ccccc2)c(=O)n(CC(=O)N[C@@H](CCCNC(=N)N)C(=O)O)c1 , report IC50.
## Output 500 to 20000 nM
